The origin of these recorded values is PubChem BioAssay AID1159580.

Recorded normalized growth values for a group of compounds are listed next.
Assay: chemical genetic growth profiling, strain panel (AID 1159580);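 note: tested at 20 µM; growth read once vehicle control cultures reached saturation at 30 °C; 1 = growth at the plate median or of vehicle wells; lower values mean less growth of the strain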
Settings: S. cerevisiae deletion strains, growth OD, locus YJL157C, strain FAR1, hits give low values
The whole screen tested about 5,500 compounds, of which about 2,000 (36%) were called active. Inconclusive results (about 18%) are left out. This is one part of the list.
Hey, just send me the number, nothing else.

Using known records, supply normalized growth for O=c1cc(CSc2ccc(Cl)cc2)c2ccc(O)cc2o1 0.737

Return reported normalized growth. Input compound: ONC(=Nc1ccccc1Cl)c1ccccc1Cl 0.785

* * *

Experiment: chemical genetic growth profiling, strain panel (AID 1159580);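 note: tested at 20 µM; growth read once vehicle control cultures reached saturation at 30 °C; 1 = growth at the plate median or of vehicle wells; lower values mean less growth of the strain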
Conditions: S. cerevisiae deletion strains, growth OD, locus YOR070C, strain gyp1
The campaign covered roughly 5,500 compounds. About 2,000 (36%) were called active. About 18% were inconclusive and are not listed. Rule as the data show it: active = normalized growth mostly below about 0.91 (no sharp cut-off); inconclusive = no clear call, values can overlap the other calls; inactive = mostly above about 0.92. The list shows a part of the results.
Please answer using one outcome listed in t = active, f = inactive

Would you please look over these solved cases?
CO[C@@H]1[C@@H](OC(N)=O)[C@@H](O)[C@H](Oc2ccc3c(O)c(NC(=O)c4ccc(O)c(CC=C(C)C)c4)c(=O)oc3c2C)OC1(C)C : f
CC(C)c1cccc(O)c(=O)c1 : t
C=CCSSSCC=C : f

Please indicate how the test categorized CO[C@H]1[C@@H](O)[C@@H](C)O[C@H](O[C@H]2CCC3(C)C4CCC5(C)[C@@H](C6=CC(=O)OC6)CC[C@]5(O)[C@@H]4CC[C@]3(O)C2)[C@@H]1O (some centres undefined) . f

Recorded test call requested for CC1(C)S[C@@H]2[C@H](NC(=O)C(C(=O)O)c3ccccc3)C(=O)N2[C@H]1C(=O)O (some centres undefined) f

Assay result, entry C=CCSCC=C — outcome? f

Hi, do you know how CC1=C2C(O)C(=O)OC3CC4C(C)(C)C(=O)C=C[C@]4(C)C(CC1)[C@]23C (some centres undefined) came out in this test? f

Query: recorded result category for NCCCN in this test f

Per the assay record, what outcome was assigned to CC1(C)S[C@@H]2[C@H](NC(=O)[C@@H](N)c3ccc(O)cc3)C(=O)N2[C@H]1C(=O)O ? f

Name the outcome recorded for CNC[C@H](O)c1cccc(O)c1 in the assay. f

Entry Oc1ccc2c3c1OC1[C@@H](O)CC[C@@]4(O)[C@@H](C2)N(CC2CCC2)CC[C@]314 (some centres undefined) : call = ? f

Identify the outcome logged in this assay for the compound shown: NC[C@H]1O[C@H](OC2[C@@H](N)C[C@@H](N)[C@H](O[C@H]3O[C@H](CO)[C@@H](O)[C@H](N)[C@H]3O)[C@H]2O)[C@H](O)[C@@H](O)[C@@H]1O (some centres undefined) f

Recorded call for CN(C)C(=O)C(CCN1CCC(O)(c2ccc(Cl)cc2)CC1)(c1ccccc1)c1ccccc1 ? f

Please let me know the test result on file for COc1ccccc1N1CCN(CCCNc2cc(=O)n(C)c(=O)n2C)CC1 . f

Can you look up the reported call for C/C=C/CC(C)C(O)C1C(=O)NC(CC)C(=O)N(C)CC(=O)N(C)C(CC(C)C)C(=O)NC(C(C)C)C(=O)N(C)C(CC(C)C)C(=O)NC(C)C(=O)NC(C)C(=O)N(C)C(CC(C)C)C(=O)N(C)C(CC(C)C)C(=O)N(C)C(C(C)C)C(=O)N1C (centres undefined) for me? f

Answer briefly: the call reported for O=c1c(-c2ccc(O)cc2)coc2c(C3O[C@H](CO)[C@@H](O)[C@H](O)[C@H]3O)c(O)ccc12 (some centres undefined) in this assay. f

Answer briefly: the call reported for O=C(O)CCc1nc(-c2ccccc2)c(-c2ccccc2)o1 in this assay. f

Fill in: this test's call for O=C(CCCN1CCC2(CC1)C(=O)NCN2c1ccccc1)c1ccc(F)cc1 is ___ f

* * *

Assay: chemical genetic growth profiling, strain panel (AID 1159580);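 note: tested at 20 µM; growth read once vehicle control cultures reached saturation at 30 °C; 1 = growth at the plate median or of vehicle wells; lower values mean less growth of the strain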
Conditions: S. cerevisiae deletion strains, growth OD, locus YBR171W, strain sec66, hits give low values
Screen size: about 5,500 compounds; about 2,000 (36%) were called active. Another 18% or so got no clear call; they are omitted. This is one part of the list.
measured_metric: normalized growth
// response body must contain only the number

Reference set (10 entries):
COc1ccc(-c2cc(=O)c3c(O)cc(O)cc3o2)cc1 : 0.999
COc1ccc(-c2cc(=O)c3c(O)c(OC)c(OC)c(OC)c3o2)cc1OC : 0.994
COC1=CC(C)[C@@H]2C[C@H]3OC(=O)C[C@H]4C(C)=C(OC)C(=O)C([C@@]34C)[C@@]2(C)C1=O (stereo partly drawn) : 0.977
C/C=C/CC(C)C(O)C1C(=O)NC(CC)C(=O)N(C)CC(=O)N(C)C(CC(C)C)C(=O)NC(C(C)C)C(=O)N(C)C(CC(C)C)C(=O)NC(C)C(=O)NC(C)C(=O)N(C)C(CC(C)C)C(=O)N(C)C(CC(C)C)C(=O)N(C)C(C(C)C)C(=O)N1C (stereo not drawn) : 1.01
Nc1nc(/C(=C/CC(=O)O)C(=O)N[C@@H]2C(=O)N3C(C(=O)O)=CCS[C@H]23)cs1 : 1.04
COC(=O)CC1C(C)(C)C(OC(C)=O)[C@@H]2[C@@H](OC(C)=O)[C@]34O[C@@]2(O)[C@]1(C)C3CC[C@]1(C)C4=CC(=O)O[C@H]1c1ccoc1 (stereo partly drawn) : 1
C=CCSC[C@@H](N)C(=O)O : 0.984
CC(=O)OCC(=O)[C@@]1(O)CCC2C3C[C@H](C)C4=CC(=O)C=CC4(C)C3[C@@H](O)CC21C (stereo partly drawn) : 1.03
CCc1ccc2c(O)c3c(cc2c1C(=O)OC)C(=O)c1c(O)ccc(O)c1C3=O : 0.97
O=C(O)C1=CC(=C(c2ccc(O)c(C(=O)O)c2)c2ccc(O)c(C(=O)O)c2)C=CC1=O : 0.963

Give the value of normalized growth reported for the following: COP(N)(=O)SC (stereo not drawn) 1

Identify normalized growth associated with the compound C[C@H]1[C@H](C)CC[C@]2(C(=O)O)CC[C@]3(C)C(=CCC4[C@@]5(C)C[C@@H](O)[C@H](O)[C@@](C)(CO)C5CC[C@]43C)[C@H]12 (stereo partly drawn) 1.04

Specify reported normalized growth for the compound shown: C=CCSSCC=C 1.04

Please look at this compound and report its normalized growth: CC1(C)S[C@@H]2[C@H](NC(=O)C(C(=O)O)c3ccccc3)C(=O)N2[C@H]1C(=O)O (stereo partly drawn) 0.948

Identify measured normalized growth associated with COc1ccc(-c2cc(=O)c3c(O)c(OC)c(O[C@H]4O[C@H](CO[C@@H]5O[C@@H](C)[C@H](O)[C@@H](O)[C@H]5O)[C@@H](O)[C@H](O)[C@H]4O)cc3o2)cc1 0.989

Supply normalized growth value. Item: CCC(=O)NCC[C@@H]1CCc2ccc3c(c21)CCO3 1

Fill in reported normalized growth for this entry: C=CCSSSCC=C 0.994

Look up normalized growth of COc1nc(NC(C)C)nc(NC(C)C)n1 and report it. 1.02

* * *

Assay: chemical genetic growth profiling, strain panel (AID 1159580);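 note: tested at 20 µM; growth read once vehicle control cultures reached saturation at 30 °C; 1 = growth at the plate median or of vehicle wells; lower values mean less growth of the strain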
Details: S. cerevisiae deletion strains, growth OD, locus YJL095W, strain BCK1 (second series)
The whole screen tested about 5,500 compounds, of which about 2,000 (36%) were called active. Inconclusive results (about 18%) are left out. Rule as the data show it: active = normalized growth mostly below about 0.91 (no sharp cut-off); inconclusive = no clear call, values can overlap the other calls; inactive = mostly above about 0.92. The list shows a part of the results.
Classes to choose from: Yes (active), No (inactive)

C[C@@H]1CCC2[C@](C)(CO)[C@@H](O)CC[C@]2(C)[C@@]12CC[C@@](CO)(CCO)O2 (stereo partly drawn) : No
COC(=O)NC(=S)Nc1ccccc1NC(=S)NC(=O)OC : No
NC(=O)c1ccccc1O : No
NC[C@H]1O[C@H](O[C@H]2[C@H](O)[C@@H](O[C@H]3O[C@H](CO)[C@@H](O)[C@H](N)[C@H]3O)[C@H](N)C[C@@H]2N)[C@H](N)[C@@H](O)[C@@H]1O : No

Assay result, entry Cc1c(OCC(F)(F)F)ccnc1CS(=O)c1nc2ccccc2[nH]1 (stereo not drawn) — outcome? No

Kindly provide the recorded test outcome for the following compound: CC1(C)Oc2ccc3ccc(=O)oc3c2CC1O (stereo not drawn) No

Returns: the outcome recorded for COc1ccccc1N1CCN(CCCNc2cc(=O)n(C)c(=O)n2C)CC1 in this assay. No

Could you please tell me the result logged for CNC[C@H](O)c1cccc(O)c1 in this assay? No

Outcome? COc1nc(NC(C)C)nc(NC(C)C)n1 No

State the result this test recorded for CC(C)c1cccc(C(C)C)c1O . No

Just curious, what result did CSc1nc(NC(C)C)nc(NC(C)C)n1 get here? No

# outcome recorded in this test, key = COc1cc(C(=O)N2CCOCC2)cc(OC)c1OC No

What was the test verdict on CC(C)c1cccc(O)c(=O)c1 ? Yes
